Could you please report measured IC50 for the items listed next?
# TARGET_OR_SYSTEM: Succinate receptor 1 (Rattus norvegicus)
# Sequence (Q6IYF9 whole entry): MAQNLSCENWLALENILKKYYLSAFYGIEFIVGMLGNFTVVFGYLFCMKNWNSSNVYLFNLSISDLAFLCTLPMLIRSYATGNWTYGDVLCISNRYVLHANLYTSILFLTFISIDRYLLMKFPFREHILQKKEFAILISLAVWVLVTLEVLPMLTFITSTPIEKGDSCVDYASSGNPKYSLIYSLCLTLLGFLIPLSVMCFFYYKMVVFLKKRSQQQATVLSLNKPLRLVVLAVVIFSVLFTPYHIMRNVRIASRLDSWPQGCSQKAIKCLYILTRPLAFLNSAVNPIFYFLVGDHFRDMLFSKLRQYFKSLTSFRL
# ASSAY_EXPLANATION: Antagonist activity at rat GPR91 receptor expressed in CHO-K1 cells co-expressing Galpha and Gqi5 G-protein assessed as inhibition of succinate-induced increase in intracellular calcium level by FLIPR assay
Please give a number only; it is taken to be in nM.

The measured IC50 associated with "Cc1cccc(-c2ccc(CNC(=O)CCCc3ccc4cccnc4n3)cc2)c1" reads 7

// IC50 value for "Clc1cccc(-c2ccc(-c3nnc(CCCc4ccc5cccnc5n4)o3)cc2)c1" : 67

Form: compound = "FC(F)(F)c1cc(-c2nnc(CCCCc3ccc4cccnc4n3)o2)ccc1Cl" ; IC50 = 435

The measured IC50 associated with "C[C@H](NC(=O)CCCc1ccc2cccnc2n1)c1ccc(-c2cccc(Cl)c2)cc1" reads 100

Recorded result, "O=C(CCCc1ccc2cccnc2n1)NCc1ccc(-c2cccc(Cl)c2)cc1" , IC50: 115

For record "O=C(CCCc1ccc2cccnc2n1)NCc1cc(-c2ccc(F)c(C(F)(F)F)c2)no1" the listed IC50 is 135
